# System: S. pyogenes (ATCC 19615)
# TEST DETAILS: Agar diffusion method, zone of inhibition
# Type: cell-based, Streptococcus pyogenes
# ASSAY CONTEXT: Streptococcus pyogenes, ATCC19615, 24 h, read-out: Diameter of zone inhibition
The reader will find reported zone of inhibition at 10 µg/mL values listed item by item below.

MOLECULE: CC(C(=O)O)N1C2=NC(c3ccc(Cl)cc3)C3=C(CC(C)(C)CC3=O)N2NC1(C)c1ccccc1O (stereo not shown) [Compound 7]
UOM: mm
zone of inhibition at 10 µg/mL: 12

MOLECULE: CC(=O)C1=C(C)N2NC(c3ccccc3O)N(C(C)C(=O)O)C2=NC1c1ccc(Cl)cc1 (stereo not shown) [Compound 2a]
UOM: mm
zone of inhibition at 10 µg/mL: 12

MOLECULE: CC(=O)OCC1=C(C(=O)O)N2C(=O)[C@@H](NC(=O)Cc3cccs3)[C@H]2SC1 [Cephalothin, reference compound]
UOM: mm
zone of inhibition at 10 µg/mL: 30

MOLECULE: CC(C(=O)O)N1c2nc(-c3ccc(Cl)cc3)c(C#N)c(=O)n2NC1c1ccccc1O (stereo not shown) [Compound 9a]
UOM: mm
zone of inhibition at 10 µg/mL: 12

MOLECULE: CC(C(=O)O)N1C2=NC(c3ccc(Cl)cc3)C3=C(CCCC3=O)N2NC1(C)c1ccccc1O (stereo not shown) [Compound 6]
UOM: mm
zone of inhibition at 10 µg/mL: 10

MOLECULE: CC1(c2ccccc2O)Nn2c(nc(-c3ccc(Cl)cc3)c(C#N)c2=O)N1C(Cc1c[nH]c2ccccc12)C(=O)O (stereo not shown) [Compound 9d]
UOM: mm
zone of inhibition at 10 µg/mL: 19

MOLECULE: CC(=O)C1=C(C)N2NC(C)(c3ccccc3O)N(C(Cc3c[nH]c4ccccc34)C(=O)O)C2=NC1c1ccc(Cl)cc1 (stereo not shown) [Compound 2d]
UOM: mm
zone of inhibition at 10 µg/mL: 20

###

Entries and their zone of inhibition at 15 µg/mL
# Tested on: C. albicans
# TEST DETAILS: Agar diffusion method, zone of inhibition
# Type: cell-based, Candida albicans
# ASSAY CONTEXT: Candida albicans, 24 h, read-out: Diameter of zone inhibition

COMPOUND: CC(=O)C1=C(C)N2NC(C)(c3ccccc3O)N(C(Cc3c[nH]c4ccccc34)C(=O)O)C2=NC1c1ccc(Cl)cc1 (centres unmarked)
zone of inhibition at 15 µg/mL (mm): 12
--
COMPOUND: CC(C(=O)O)N1C2=NC(c3ccc(Cl)cc3)C3=C(CCCC3=O)N2NC1(C)c1ccccc1O (centres unmarked)
zone of inhibition at 15 µg/mL (mm): 8
--
COMPOUND: CC(C(=O)O)N1c2nc(-c3ccc(Cl)cc3)c(C#N)c(=O)n2NC1(C)c1ccccc1O (centres unmarked)
zone of inhibition at 15 µg/mL (mm): 8
--
COMPOUND: CCOC(=O)C1=C(C)N2NC(C)(c3ccccc3O)N(C(Cc3c[nH]c4ccccc34)C(=O)O)C2=NC1c1ccc(Cl)cc1 (centres unmarked)
zone of inhibition at 15 µg/mL (mm): 10
--
COMPOUND: Clc1ccccc1C(c1ccccc1)(c1ccccc1)n1ccnc1 [Clotrimazole, reference compound]
zone of inhibition at 15 µg/mL (mm): 44
--
COMPOUND: CC(=O)C1=C(C)N2NC(c3ccccc3O)N(C(Cc3c[nH]c4ccccc34)C(=O)O)C2=NC1c1ccc(Cl)cc1 (centres unmarked)
zone of inhibition at 15 µg/mL (mm): 9
--
COMPOUND: CC(C(=O)O)N1C2=NC(c3ccc(Cl)cc3)C3=C(CC(C)(C)CC3=O)N2NC1(C)c1ccccc1O (centres unmarked)
zone of inhibition at 15 µg/mL (mm): 11
--
COMPOUND: CCOC(=O)C1=C(C)N2NC(c3ccccc3O)N(C(Cc3c[nH]c4ccccc34)C(=O)O)C2=NC1c1ccc(Cl)cc1 (centres unmarked)
zone of inhibition at 15 µg/mL (mm): 7
--
COMPOUND: CC1(c2ccccc2O)Nn2c(nc(-c3ccc(Cl)cc3)c(C#N)c2=O)N1C(Cc1c[nH]c2ccccc12)C(=O)O (centres unmarked)
zone of inhibition at 15 µg/mL (mm): 8
--
COMPOUND: N#Cc1c(-c2ccc(Cl)cc2)nc2n(c1=O)NC(c1ccccc1O)N2C(Cc1c[nH]c2ccccc12)C(=O)O (centres unmarked)
zone of inhibition at 15 µg/mL (mm): 11
--
COMPOUND: CC(C(=O)O)N1C2=NC(c3ccc(Cl)cc3)c3c([nH]c(=O)[nH]c3=O)N2NC1(C)c1ccccc1O (centres unmarked)
zone of inhibition at 15 µg/mL (mm): 9
--
COMPOUND: CC(C(=O)O)N1c2nc(-c3ccc(Cl)cc3)c(C#N)c(=O)n2NC1c1ccccc1O (centres unmarked)
zone of inhibition at 15 µg/mL (mm): 9
--
COMPOUND: CCOC(=O)C1=C(C)N2NC(C)(c3ccccc3O)N(C(C)C(=O)O)C2=NC1c1ccc(Cl)cc1 (centres unmarked)
zone of inhibition at 15 µg/mL (mm): 12
--
COMPOUND: CC(=O)C1=C(C)N2NC(C)(c3ccccc3O)N(C(C)C(=O)O)C2=NC1c1ccc(Cl)cc1 (centres unmarked)
zone of inhibition at 15 µg/mL (mm): 8
